Listing of entries alongside the reported NADPH fluorescence slope.
Target: Voltage-gated potassium channel subunit beta-2 (Rattus norvegicus) (UniProt P62483)
Sequence (P62483 whole entry, looked up): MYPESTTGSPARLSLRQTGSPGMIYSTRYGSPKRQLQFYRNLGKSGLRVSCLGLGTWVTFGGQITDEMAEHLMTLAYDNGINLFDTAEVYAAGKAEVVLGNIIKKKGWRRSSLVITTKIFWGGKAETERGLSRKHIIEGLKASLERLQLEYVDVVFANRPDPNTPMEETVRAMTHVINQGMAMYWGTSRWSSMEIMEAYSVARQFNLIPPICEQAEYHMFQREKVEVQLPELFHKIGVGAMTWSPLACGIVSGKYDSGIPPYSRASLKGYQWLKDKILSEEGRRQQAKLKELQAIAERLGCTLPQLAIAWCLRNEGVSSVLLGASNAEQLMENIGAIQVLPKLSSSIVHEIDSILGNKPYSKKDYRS
Experiment: enhancers of rat Kvbeta2 NADPH turnover – biochemical, NADPH fluorescence, primary screen (AID 623);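 also: fluorescence intensity change per second fitted from 20 to 320 s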
Settings: Recombinant KvBeta, NADPH fluorescence decrease slope, 10 min; at 10 µM; stronger effect = lower value

>  <compound>
COc1cc2c3c(c1)/C(=C1/SC(NC(C)=O)=NC1=O)C(=O)N3C(C)(C)C=C2C

>  <NADPH fluorescence slope>
-2e-05

$$$$
>  <compound>
CC(=O)NC(CCS(C)(=O)=O)C(=O)Nc1cc(C)on1 (configuration not stated)

>  <NADPH fluorescence slope>
2.6e-05

$$$$
>  <compound>
CCCCCCOC(=O)C(C#N)c1nc2ccccc2nc1N1CCCCC1 (configuration not stated)

>  <NADPH fluorescence slope>
3.7e-05

$$$$
>  <compound>
Cc1noc(C)c1COc1cccc(C(=O)Nc2ccc(C#N)cc2)c1

>  <NADPH fluorescence slope>
-4.9e-05

$$$$
>  <compound>
N#CCCN1CCN(S(=O)(=O)c2ccc(S(=O)(=O)NC3CCCCC3)cc2)CC1

>  <NADPH fluorescence slope>
-4.3e-06

$$$$
>  <compound>
c1ccc(CCNc2ccc3nncn3n2)cc1

>  <NADPH fluorescence slope>
-2.4e-05

$$$$
>  <compound>
O=C1c2ccccc2C(Nc2ccc(F)c(Cl)c2)N1Cc1ccco1 (configuration not stated)

>  <NADPH fluorescence slope>
-5.5e-05

$$$$
>  <compound>
Cc1nc2scc(-c3ccco3)c2c(=O)n1/N=C/N(C)C

>  <NADPH fluorescence slope>
-6.4e-05

$$$$
>  <compound>
O=C(CCC1COc2ccccc2O1)NCC1COc2ccccc2O1 (configuration not stated)

>  <NADPH fluorescence slope>
-2.5e-05

$$$$
>  <compound>
Cn1c(=O)[nH]c(=O)c2c1ncn2CCN1CCOCC1

>  <NADPH fluorescence slope>
1.1e-05

$$$$
>  <compound>
CCN1CCN(C(=O)Cn2ncc3ccsc3c2=O)CC1

>  <NADPH fluorescence slope>
-8e-06

$$$$
>  <compound>
Cc1ccc2[nH]c(=O)c(CN(Cc3ccc4c(c3)OCO4)Cc3nnnn3Cc3ccco3)cc2c1

>  <NADPH fluorescence slope>
-7e-06

$$$$
>  <compound>
O=S(=O)(c1ccc(F)c(Cl)c1)N1CCCC1

>  <NADPH fluorescence slope>
-1e-05

$$$$
>  <compound>
O=C(Nc1nc2c(s1)CCCC2)C1COc2ccccc2O1 (configuration not stated)

>  <NADPH fluorescence slope>
-1.6e-05

$$$$
>  <compound>
N#Cc1c2n(c(=S)n(-c3ccccn3)c1=O)CCCCC2

>  <NADPH fluorescence slope>
-4.9e-05

$$$$
>  <compound>
COc1ccc(CNc2oc(-c3ccccc3)nc2C#N)cc1

>  <NADPH fluorescence slope>
2.8e-05

$$$$
>  <compound>
CCCCC(O)(C(NC=O)C(=O)OC)C(F)(F)F (configuration not stated)

>  <NADPH fluorescence slope>
9.5e-07

$$$$
>  <compound>
CCOC(=O)c1sc(Nc2nc3c(OC)cccc3s2)nc1C

>  <NADPH fluorescence slope>
2.5e-05

$$$$
>  <compound>
O=C(Nc1ccon1)c1csc2c1CCCC2

>  <NADPH fluorescence slope>
-5.9e-05

$$$$
>  <compound>
COc1ccc(N2CCN(CCCNC(=O)CC3Oc4ccc(C)cc4NC3=O)CC2)cc1 (configuration not stated)

>  <NADPH fluorescence slope>
1.7e-05

$$$$
>  <compound>
COc1ccc(C2CC(c3cccc(C)c3)n3ncnc3N2)cc1 (configuration not stated)

>  <NADPH fluorescence slope>
1.9e-05

$$$$
>  <compound>
COc1cccc(-c2csc(N3CCN(CC(=O)Nc4ccc5c(c4)OCO5)CC3)n2)c1

>  <NADPH fluorescence slope>
-1.3e-05

$$$$

====

Experiment: TLR3 IRF3 reporter activation blockers – cell-based, poly I:C stimulus, luciferase, 10K MLSCN set, primary screen (AID 602277)
Details: HEK293-TLR3 RL24 IRF3 luciferase reporter, at 10 µM, stronger effect = higher value

>  <compound>
CN1CCN(CCCNC(=O)Cn2ncc3c4ccccc4n(C)c3c2=O)CC1

>  <unit-tag>
%

>  <inhibition>
35.3

$$$$
>  <compound>
CCOc1ccc(S(=O)(=O)N2CCN(C(=O)c3cccn3C)CC2)cc1

>  <unit-tag>
%

>  <inhibition>
19.3

$$$$
>  <compound>
COc1ccc(OC)c(NC(=O)CCN2CCC(C)CC2)c1

>  <unit-tag>
%

>  <inhibition>
-0.553

$$$$
>  <compound>
Cn1c(SCc2nc3ccccc3c(=O)[nH]2)nnc1-c1ccco1

>  <unit-tag>
%

>  <inhibition>
25.9

$$$$
>  <compound>
CC(CCc1ccccc1)NC(=O)CSc1nc(N)cc(N)n1 (stereo unspecified)

>  <unit-tag>
%

>  <inhibition>
10.6

$$$$
>  <compound>
COC(=O)C(C)Sc1nnc2n(-c3cccc(C)c3)c(=O)c3c4c(sc3n12)CCCC4 (stereo unspecified)

>  <unit-tag>
%

>  <inhibition>
-7.85

$$$$
>  <compound>
COCCOC(=O)C1=C(C)NC(=O)CC1c1cc2c(cc1Br)OCO2 (stereo unspecified)

>  <unit-tag>
%

>  <inhibition>
16.1

$$$$
>  <compound>
FC(F)(F)c1cc(-c2ccco2)nc(NCc2ccco2)n1

>  <unit-tag>
%

>  <inhibition>
13.8

$$$$
>  <compound>
CCOc1ccc(C(=O)CN2CCN(S(=O)(=O)c3ccc(OC)cc3)CC2)cc1

>  <unit-tag>
%

>  <inhibition>
21.2

$$$$
>  <compound>
Cn1c(=O)[nH]c(=O)c2c1ncn2CCN1CCOCC1

>  <unit-tag>
%

>  <inhibition>
16.4

$$$$
>  <compound>
COc1cc2c(cc1OC)-c1nnc(C)n1C1(CCCC1)C2

>  <unit-tag>
%

>  <inhibition>
1.68

$$$$

====

Experiment: endothelial E-selectin expression blockers – imaging, HUVEC, immunofluorescence, MLSMR starter and 10KST1 sets, primary screen (AID 487);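 also: 100% = median nuclei count of all wells on the same plate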
Conditions: HUVEC TNFalpha-induced E-selectin immunofluorescence imaging, at 2 µM; measured here: cell number, toxicity
measurement-label: nuclei count (%)

>  <molecule>
CCCCn1nnc(NC(=O)Cc2ccc(Cl)cc2)n1

>  <measurement-label>
nuclei count

>  <observed-measurement>
106

$$$$
>  <molecule>
Oc1cc(NCc2cccnc2)ccc1-c1nc2ccccc2o1

>  <measurement-label>
nuclei count

>  <observed-measurement>
123

$$$$
>  <molecule>
COc1ccccc1N1CCN(C(=O)CN(Cc2ccc(Cl)cc2)S(C)(=O)=O)CC1

>  <measurement-label>
nuclei count

>  <observed-measurement>
174

$$$$
>  <molecule>
O=C(c1ccc(-c2ccccc2)cc1)N1CCN(c2ncccn2)CC1

>  <measurement-label>
nuclei count

>  <observed-measurement>
85.3

$$$$
>  <molecule>
O=C(Nc1ncc(Cc2ccccc2)s1)C1CCCO1 (stereo not given)

>  <measurement-label>
nuclei count

>  <observed-measurement>
96.3

$$$$
>  <molecule>
COc1ccc(Cl)cc1S(=O)(=O)N1CCN(c2ccc(F)cc2)CC1

>  <measurement-label>
nuclei count

>  <observed-measurement>
137

$$$$
>  <molecule>
O=C(NCc1cccnc1)c1ccc2c(c1)OCO2

>  <measurement-label>
nuclei count

>  <observed-measurement>
110

$$$$
>  <molecule>
CC1CCCCC1NC(=O)C1CCN(C(=O)NC2CCCCC2)CC1 (stereo not given)

>  <measurement-label>
nuclei count

>  <observed-measurement>
79.8

$$$$
>  <molecule>
COc1ccccc1NC(=O)Cn1nnc(-c2ccccc2NC(=O)c2ccco2)n1

>  <measurement-label>
nuclei count

>  <observed-measurement>
117

$$$$
>  <molecule>
CCC(c1nnnn1Cc1ccco1)N(CCc1ccccc1)Cc1cc2cccc(C)c2[nH]c1=O (stereo not given)

>  <measurement-label>
nuclei count

>  <observed-measurement>
110

$$$$
>  <molecule>
Cc1nnc(SCC(=O)N2CCN(S(=O)(=O)c3ccccc3)CC2)[nH]c1=O

>  <measurement-label>
nuclei count

>  <observed-measurement>
127

$$$$
>  <molecule>
CCOC(=O)N1CCC(N2CC34C=CC(O3)C(C(=O)O)C4C2=O)CC1 (stereo not given)

>  <measurement-label>
nuclei count

>  <observed-measurement>
114

$$$$
>  <molecule>
Cn1c(=O)[nH]c(=O)c2c1nc(NC1CCCCC1)n2CC(=O)NC1CCCCC1

>  <measurement-label>
nuclei count

>  <observed-measurement>
105

$$$$
>  <molecule>
Cc1cc2cc(CCNC(=O)CC(C)C)c(=O)[nH]c2cc1C

>  <measurement-label>
nuclei count

>  <observed-measurement>
107

$$$$
>  <molecule>
COC(=O)Cc1cc(=O)[nH]c(Nc2nc3ccccc3o2)n1

>  <measurement-label>
nuclei count

>  <observed-measurement>
112

$$$$
